- Tested on: HeLa
- measurement-description: Antiproliferative activity against human HeLa cells after 48 hrs by MTT assay
- Type: functional, cell-based
metric-name: IC50 (nM)

A = COc1cc(OCCOc2no[n+]([O-])c2S(=O)(=O)c2ccccc2)ccc1C(=O)/C=C/c1ccccc1
B = Cc1cc(=O)oc2cc(OCCOc3no[n+]([O-])c3S(=O)(=O)c3ccccc3)ccc12
C = COCCOc1no[n+]([O-])c1S(=O)(=O)c1ccccc1
IN: Put the items above in order of decreasing IC50. Give the order by naming the labels one after another as requested.
OUT: C, B, A

----------
- Tested on: MCF-10A
- measurement-description: Cytotoxicity against human MCF10A cells after 72 hrs by MTS assay
- Format: cell-based
Examples of compounds with documented IC50 follow.

Illustrative cases are given below, each with its answer.
Nc1cccc2c1CN(C1CCC(=O)NC1=O)C2=O (stereo not drawn) [LENALIDOMIDE] :: > 20 µM
Cc1c(Cc2ccccc2)c(=O)oc2cc(OCCOc3no[n+]([O-])c3S(=O)(=O)c3ccccc3)ccc12 :: > 20 µM

Moving on to the next compound.
Lab note: compound Cc1c(Cc2ccc(F)cc2)c(=O)oc2cc(OCCOc3no[n+]([O-])c3S(=O)(=O)c3ccccc3)ccc12 tested on MCF-10A; recorded IC50 was > 20 µM

----------
- measurement-description: Antiproliferative activity against human OVCA433 cells after 48 hrs by MTT assay
- Format: functional, cell-based
- details: OVCA433, 48 h
metric-name: IC50 (nM)
Report only the number, with the unit nM understood.

COc1cc(OCCOc2no[n+]([O-])c2S(=O)(=O)c2ccccc2)ccc1C(=O)/C=C/c1ccc(F)cc1 :: 6.6

So for COc1cc(OCCOc2no[n+]([O-])c2S(=O)(=O)c2ccccc2)ccc1C(=O)/C=C/c1ccccc1 , the logged IC50 turned out to be 10.1

So for CNS(=O)(=O)Nc1cccc(Cc2c(C)c3ccc(OCCOc4no[n+]([O-])c4S(=O)(=O)c4ccccc4)cc3oc2=O)c1 , the logged IC50 turned out to be 16.3
